From: PubChem BioAssay (EPA / NIEHS)

Read-out: Ezrin (EZR), EZR (gene 7430)
Assay: LTEA_HepaRG_EZR: Life Technologies and Expression Analysis (LTEA) Assay for Ezrin (EZR) using HepaRG (AID 2283491)
Details: mRNA level, 48 h; actives raise or lower the signal
Active and inactive are the calls of the source. The calls were made as follows: active = hit-call score of the fitted dose curve at least 0.9, where 1 is the maximum; inactive = score below 0.9.
One label from this list, please: class 1 = active, class 0 = inactive

// known answers, use as guide
| compound | labelValue |
| --- | --- |
| CNC(=O)ON=C(SC)C(=O)N(C)C | class 0 |
| Nc1c(Cl)cc([N+](=O)[O-])cc1Cl | class 1 |

Kindly provide the recorded test outcome for the following compound: O=[N+]([O-])c1cc(C(F)(F)F)c(Cl)c([N+](=O)[O-])c1Nc1ncc(C(F)(F)F)cc1Cl class 0

Kindly provide the recorded test outcome for the following compound: CN(C)C(=O)Nc1cccc(C(F)(F)F)c1 class 0

----------
Assay: BSK_SAg_PBMCCytotoxicity: PBMC Cytotoxicity Assessment in the BioMAP Diversity Plus: SAg Assay (AID 2283093);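 also: PBMC viability measured as Alamar Blue reduction fluorescence at 546/580 nm; fitted both ways against DMSO so a hit may be loss or gain of signal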
Conditions: primary human HUVEC with PBMC
Activity calls are given as the source filed them. Rule for the calls: active = hit-call score of the fitted dose curve at least 0.9, where 1 is the maximum; inactive = score below 0.9.
One label from this list, please: y (active), n (inactive)

// known answers, use as guide
| compound | labelValue |
| --- | --- |
| CCOC(=O)CC(SP(=O)(OC)OC)C(=O)OCC (centres undefined) | n |
| CN(C)C(=O)Nc1cccc(C(F)(F)F)c1 | n |
| Cc1ccn2nc(S(=O)(=O)Nc3c(F)cccc3F)nc2n1 | n |
| CCCSP(=O)(OCC)SCCC | n |

Kindly provide the recorded test outcome for the following compound: CC1=NNC(=O)N(/N=C/c2cccnc2)C1 n

Kindly provide the recorded test outcome for the following compound: CC[C@H](C)[C@H]1O[C@]2(C=C[C@@H]1C)C[C@@H]1C[C@@H](C/C=C(\C)[C@@H](O[C@H]3C[C@H](OC)[C@@H](O[C@H]4C[C@H](OC)[C@@H](NC)[C@H](C)O4)[C@H](C)O3)[C@@H](C)/C=C/C=C3\CO[C@@H]4[C@H](O)C(C)=C[C@@H](C(=O)O1)[C@]34O)O2 y

----------
Read-out: Alpha-fetoprotein (AFP) gene, AFP (gene 174)
Assay: LTEA_HepaRG_AFP: Life Technologies and Expression Analysis (LTEA) Assay for Alpha-fetoprotein (AFP) gene using HepaRG (AID 2283472);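 as to AC50: AFP transcript by TaqMan qRT-PCR normalized to ACTB GAPDH and POLR2A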
Details: mRNA level, 48 h; actives raise or lower the signal
Active and inactive are the calls of the source. Rule for the calls: active = hit-call score of the fitted dose curve at least 0.9, where 1 is the maximum; inactive = score below 0.9.
quantity: AC50

Example entries begin here.
| smilesEntry | AC50 |
| --- | --- |
| Cc1nn(-c2cc(NS(C)(=O)=O)c(Cl)cc2Cl)c(=O)n1C(F)F | inactive |
| COP(=O)(OC)SCn1c(=O)oc2cc(Cl)cnc21 | inactive |
| CCCOc1nn(C(=O)NS(=O)(=O)c2ccccc2C(=O)OC)c(=O)n1C | inactive |
| CCCCOC(=O)[C@@H](C)Oc1ccc(Oc2ccc(C#N)cc2F)cc1 | inactive |

Here's the next entry for you.
The compound listed as C=C(C)[C@H]1Cc2c(ccc3c2O[C@@H]2COc4cc(OC)c(OC)cc4[C@@H]2C3=O)O1 has a reported AC50 of 985 nM (active)

----------
Test: ATG_NFI_CIS: Attagene CIS-FACTORIAL HepG2 Assay for human Nuclear Factor I (NFI) (AID 2282989)
Details: HepG2 cis-regulatory reporter, NFI response element transcription; actives raise or lower the signal
Active and inactive are the calls of the source. The calls were made as follows: active = hit-call score of the fitted dose curve at least 0.9, where 1 is the maximum; inactive = score below 0.9.
One label from this list, please: active, inactive

// known answers, use as guide
| compound | labelValue |
| --- | --- |
| CNc1cnn(-c2cccc(C(F)(F)F)c2)c(=O)c1Cl | inactive |
| C[N+]1(C)CCCCC1 | inactive |
| CSc1nnc(C(C)(C)C)c(=O)n1N | inactive |
| CSC1=N[C@@](C)(c2ccccc2)C(=O)N1Nc1ccccc1 | inactive |
| COP(=O)(OC)SCn1c(=O)oc2cc(Cl)cnc21 | inactive |

Kindly provide the recorded test outcome for the following compound: CSc1nc(NC(C)C)nc(NC(C)C)n1 inactive

Kindly provide the recorded test outcome for the following compound: CCCCN(CC)c1c([N+](=O)[O-])cc(C(F)(F)F)cc1[N+](=O)[O-] inactive

Kindly provide the recorded test outcome for the following compound: CN(C)C(=O)Nc1cccc(C(F)(F)F)c1 inactive

----------
Read-out: Phosphatase and tensin (PTEN), PTEN (gene 5728)
Assay: LTEA_HepaRG_PTEN: Life Technologies and Expression Analysis (LTEA) Assay for Phosphatase and tensin (PTEN) using HepaRG (AID 2283523)
Conditions: mRNA level, 48 h; actives raise or lower the signal
The source made the active and inactive calls. How the source made its calls: active means hit-call score of the fitted dose curve at least 0.9, where 1 is the maximum; inactive means score below 0.9.
One label from this list, please: YES for active, NO for inactive

| compound | labelValue |
| --- | --- |
| CCOP(=S)(OCC)Oc1ccc([N+](=O)[O-])cc1 | NO |
| CSC1=N[C@@](C)(c2ccccc2)C(=O)N1Nc1ccccc1 | NO |

Kindly provide the recorded test outcome for the following compound: C=C(C)[C@H]1Cc2c(ccc3c2O[C@@H]2COc4cc(OC)c(OC)cc4[C@@H]2C3=O)O1 NO

Kindly provide the recorded test outcome for the following compound: Cc1cc(C2CC2)nc(Nc2ccccc2)n1 NO

Kindly provide the recorded test outcome for the following compound: CCCOCC(=Nc1ccc(Cl)cc1C(F)(F)F)n1ccnc1 YES

Kindly provide the recorded test outcome for the following compound: COc1cc(OC)nc(Sc2cccc(Cl)c2C(=O)O)n1 NO

Kindly provide the recorded test outcome for the following compound: CCOP(=S)(OCC)SCCSCC NO

Kindly provide the recorded test outcome for the following compound: COP(=O)(OC)OC(Br)C(Cl)(Cl)Br (stereo not drawn) NO

----------
Assay: APR_HepG2_P-H2AX_72hr: Apredica 72-hour HepG2 Assay for H2AX Phosphorylation (AID 2282916);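 also: phospho-histone H2A.x immunostain intensity per cell marking DNA damage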
Settings: imaging, actives raise or lower the signal
Calls of active or inactive are those of the source. Rule for the calls: active = hit-call score of the fitted dose curve at least 0.9, where 1 is the maximum; inactive = score below 0.9.
One label from this list, please: active, inactive

// known answers, use as guide
| molecule | labelValue |
| --- | --- |
| Cc1cc(C2CC2)nc(Nc2ccccc2)n1 | active |
| CCc1cccc(C)c1N(C(=O)CCl)C(C)COC (stereo unspecified) | active |
| CN(C)NC(=O)CCC(=O)O | inactive |
| CCCOc1nn(C(=O)NS(=O)(=O)c2ccccc2C(=O)OC)c(=O)n1C | inactive |
| CCNc1nc(Cl)nc(NC(C)(C)C#N)n1 | inactive |

Kindly provide the recorded test outcome for the following molecule: CCC(=O)Nc1ccc(Cl)c(Cl)c1 inactive

Kindly provide the recorded test outcome for the following molecule: CCc1cccc(CC)c1N(COC)C(=O)CCl inactive

Kindly provide the recorded test outcome for the following molecule: COP(=O)(OC)OC(Br)C(Cl)(Cl)Br (stereo unspecified) inactive

Kindly provide the recorded test outcome for the following molecule: CC1(C(=O)Nc2ccc(O)c(Cl)c2Cl)CCCCC1 inactive

Kindly provide the recorded test outcome for the following molecule: CSC1=N[C@@](C)(c2ccccc2)C(=O)N1Nc1ccccc1 inactive

Kindly provide the recorded test outcome for the following molecule: CNc1cnn(-c2cccc(C(F)(F)F)c2)c(=O)c1Cl inactive

----------
Read-out: CYP2E1 (gene 1571)
Experiment: LTEA_HepaRG_CYP2E1: Life Technologies and Expression Analysis (LTEA) Assay for CYP2E1 using HepaRG (AID 2283485)
Details: mRNA level, 48 h; actives raise or lower the signal
Calls of active or inactive are those of the source. The calls were made as follows: active = hit-call score of the fitted dose curve at least 0.9, where 1 is the maximum; inactive = score below 0.9.

| compound | AC50 |
| --- | --- |
| CC(C)=CC1C(C(=O)OCN2C(=O)C3=C(CCCC3)C2=O)C1(C)C (stereo not drawn) | inactive |
| CCOP(=S)(OCC)Oc1cc(C)nc(C(C)C)n1 | 9.92 µM (active) |
| CN(C)NC(=O)CCC(=O)O | inactive |

----------
Assay: ACEA_ER_AUC_viability: ACEA Biosciences xCELLigence Real-Time Cell Analysis on Estrogen Receptor Agonism for Viability (AID 2283782);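 also: continuous compound exposure with impedance area under curve over 80 h; hit means loss of impedance signal meaning reduced cell growth or viability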
Results filed as inconclusive are left out. The source made the active and inactive calls. The calls were made as follows: active = hit-call score of the fitted dose curve at least 0.9, where 1 is the maximum; inconclusive = response in the unintended direction; inactive = score below 0.9.
One label from this list, please: class 1 for active, class 0 for inactive

| compound | labelValue |
| --- | --- |
| CCc1cccc(CC)c1N(COC)C(=O)CCl | class 0 |
| O=C(O)c1cc(Oc2ccc(C(F)(F)F)cc2Cl)ccc1[N+](=O)[O-] | class 0 |
| CCCSP(=O)(OCC)Oc1ccc(Br)cc1Cl (stereo not drawn) | class 1 |
| CC(COc1ccc(Oc2ccccc2)cc1)Oc1ccccn1 (stereo not drawn) | class 0 |
| CCC(=NOC/C=C/Cl)C1=C(O)CC(C2CCOCC2)CC1=O (stereo not drawn) | class 0 |
| Nc1nc(N)nc(NC2CC2)n1 | class 0 |
| CCc1cccc(C)c1N(C(=O)CCl)C(C)COC (stereo not drawn) | class 0 |
| FC(F)C(F)(F)OCC(Cn1cncn1)c1ccc(Cl)cc1Cl (stereo not drawn) | class 1 |
| S=C1NCCN1 | class 0 |
| CON=C(C(=O)OC)c1ccccc1CON=C(C)c1cccc(C(F)(F)F)c1 | class 1 |

Kindly provide the recorded test outcome for the following compound: CC(C1CC1)C(O)(Cn1cncn1)c1ccc(Cl)cc1 (stereo not drawn) class 0

Kindly provide the recorded test outcome for the following compound: CCOP(=O)(OCC)Oc1cc(C)nc(C(C)C)n1 class 0

Kindly provide the recorded test outcome for the following compound: CC(=NC#N)N(C)Cc1ccc(Cl)nc1 class 0

Kindly provide the recorded test outcome for the following compound: CSc1nnc(C(C)(C)C)c(=O)n1N class 0

Kindly provide the recorded test outcome for the following compound: CCOC(=O)COc1cc(-c2nn(C)c(OC(F)F)c2Cl)c(F)cc1Cl class 0

Kindly provide the recorded test outcome for the following compound: CC(C)N(C(=O)SCC(Cl)=C(Cl)Cl)C(C)C class 1

Kindly provide the recorded test outcome for the following compound: COP(=O)(OC)OC(Br)C(Cl)(Cl)Br (stereo not drawn) class 1

Kindly provide the recorded test outcome for the following compound: CCCCSP(=O)(SCCCC)SCCCC class 1

Kindly provide the recorded test outcome for the following compound: COP(=O)(OC)SCn1c(=O)oc2cc(Cl)cnc21 class 1
